assayed_system: hATX/ENPP2 (Homo sapiens)
protocol_text: hATX/ENPP2 biochemical assay using 16:0-LPC as substrate (Amplex Red/choline oxidase/HRP fluorescence)
assay_context: hENPP2 2.5 nM, LPC (16:0) substrate
Counter-ions that a name gives are not always drawn.
observation_type: IC50

# annotated cases, reported IC50 shown
CCc1nc2ccc(-c3cnc(N4CC(NC(=O)[C@@H]5C[C@H](O)CN5)C4)nc3)cn2c1N(C)c1nc(-c2ccc(F)cc2)c(C#N)s1
20 to 200 nM
CCc1nc2ccc(-c3cnc(N4CC(NC(=O)[C@H]5C[C@H](O)CN5)C4)nc3)cn2c1N(C)c1nc(-c2ccc(F)cc2)c(C#N)s1
20 to 200 nM
CCc1nc2ccc(-c3ccc(N4CC(C(=O)NC5(CO)CC5)C4)nc3)cn2c1N(C)c1nc(-c2ccc(F)cc2)c(C#N)s1
20 to 200 nM

The compound listed as `CCc1nc2ccc(-c3ccc(N4CCC(NC5CCNCC5)CC4)nc3)cn2c1N(C)c1nc(-c2ccc(F)cc2)c(C#N)s1` has a reported IC50 of ≤ 20 nM

# compound `CCc1nc2ccc(-c3ccc(N4CCC(C(=O)N5CCC5)CC4)nc3)cn2c1N(C)c1nc(-c2ccc(F)cc2)c(C#N)s1` ; its IC50 = ≤ 20 nM

// `CCc1nc2ccc(-c3cnc(N4CCC(NC(=O)[C@H]5C[C@@H](O)CN5)CC4)nc3)cn2c1N(C)c1nc(-c2ccc(F)cc2)c(C#N)s1` : IC50 value = ≤ 20 nM

IC50 recorded for this compound, `CCc1nc2ccc(-c3cnc(N4CC(C(=O)NC5(CO)CC5)C4)nc3)cn2c1N(C)c1nc(-c2ccc(F)cc2)c(C#N)s1` , is ≤ 20 nM

The compound listed as `CCc1nc2ccc(-c3ccc(N4CCN(C(=O)N5CCCC5)CC4)nc3)cn2c1N(C)c1nc(-c2ccc(F)cc2)c(C#N)s1` shows IC50 equal to 20 to 200 nM

Per the record, `CCc1nc2ccc(-c3ccc(N4CCC(C(=O)N5CCCCC5)CC4)nc3)cn2c1N(C)c1nc(-c2ccc(F)cc2)c(C#N)s1` has IC50 of 20 to 200 nM

Kindly note the recorded IC50 for `CCc1nc2ccc(-c3cnc(CC(=O)NC4CCNCC4)nc3)cn2c1N(C)c1nc(-c2ccc(F)cc2)c(C#N)s1` , which is 20 to 200 nM

Entry under test: CCc1nc2ccc(-c3cnc(N4CC(NC5CN(C)C5)C4)nc3)cn2c1N(C)c1nc(-c2ccc(F)cc2)c(C#N)s1 [80 (hydrochloride salt)] . Its IC50 was 20 to 200 nM

The recorded IC50 for CCc1nc2ccc(-c3cnc(N4CCC(NC(=O)C5CNC5)CC4)nc3)cn2c1N(C)c1nc(-c2ccc(F)cc2)c(C#N)s1 [Compound 83 hydrochloride] is ≤ 20 nM

The value of IC50 measured for the compound `CCc1nc2ccc(-c3cnc(CC(=O)N4CCOCC4)nc3)cn2c1N(C)c1nc(-c2ccc(F)cc2)c(C#N)s1` turned out to be 20 to 200 nM
